ASSAY_NOTES: self-splicing fitness, log relative to wild type (ln ratio); higher = more splicing; Tetrahymena group I intron in knt gene, E. coli kanamycin selection, DiMSum; sequences stand for … in CUCUCU…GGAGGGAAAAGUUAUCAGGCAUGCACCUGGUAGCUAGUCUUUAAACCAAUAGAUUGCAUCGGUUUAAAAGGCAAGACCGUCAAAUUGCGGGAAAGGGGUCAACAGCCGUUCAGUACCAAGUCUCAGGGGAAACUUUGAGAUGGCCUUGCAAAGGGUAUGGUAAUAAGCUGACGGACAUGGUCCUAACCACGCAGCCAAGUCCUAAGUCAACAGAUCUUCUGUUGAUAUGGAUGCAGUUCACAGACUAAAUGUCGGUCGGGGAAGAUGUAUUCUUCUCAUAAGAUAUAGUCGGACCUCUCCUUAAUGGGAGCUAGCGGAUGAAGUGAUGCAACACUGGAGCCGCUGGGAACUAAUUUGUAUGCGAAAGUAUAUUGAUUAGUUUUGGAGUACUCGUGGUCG;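 note: selection with 25 µg/mL kanamycin versus none on LB agar overnight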
ASSAY_SETUP: 37 °C
Give self-splicing fitness (ln) for every item shown.
Answers are plain numbers.

>  <BIOSEQUENCE>
UAGAAGCAAUAUUACGUUCU

>  <RECORDED_MEASUREMENT>
-1.08

$$$$

Here are 3 sequences. What values of self-splicing fitness (ln) were reported for them?
1. UGCCAGCAAUAUUACGUCCU
2. GCAGAGCAAUAUUACGAUGG
3. GUACAGCAAUAUUACGUCUA

0.244
-1.65
-0.268

// each sequence listed below needs its self-splicing fitness (ln)
1. GCGUAGCAAUAUUACGAUUA
2. GAGCAGCAAUAUUACGCAUU
3. GCGCAGCAAUAUUACGCAUC
4. CCGAAGCAAUAUUACGACAU

0.608
-2.23
-0.339
-2.82

Kindly give each listed record's self-splicing fitness (ln).
1. CUUGAGCAAUAUUACGUGCU
2. CAAUAGCAAUAUUACGCGUG
3. AAUGAGCAAUAUUACGUCUU
4. AAAAAGCAAUAUUACGACUC
5. CUUCAGCAAUAUUACGGCCU
6. CCGAAGCAAUAUUACGCCCU

-3.89
-1.44
-0.0903
0.373
-1.66
-1.26

// each sequence listed below needs its self-splicing fitness (ln)
1. UCUCAGCAAUAUUACGGCGU
2. GAUGAGCAAUAUUACGGGAC
3. AACAAGCAAUAUUACGUCGA

1: -0.636; 2: -3.23; 3: -0.532

Where do these numbers come from? They come from the supplement of paper PMC7877785.
